Tested on: SK-MEL-5 melanoma
Experiment: NCI tumour cell line growth inhibition, 48 h
experimental.endpoint: TGI (µM)
State the answer as a number, implicitly in µM.

Some solved cases for reference:
Ask | Sample `CCOC(=O)C1=C(c2ccccc2)N(C)c2ccccc2S1` — what was its TGI?
Reply | 30.3

Ask | Next compound up: CC(=O)O[C@@H]1C[C@@]23C[C@@]24CC[C@H](OC2OCC(O)C(O)C2O)C(C)(C)[C@@H]4CC=C3[C@]2(C)C[C@@H]3OC4(C[C@@H](C)[C@@H]3[C@@]12C)OC(O)[C@@]1(C)O[C@@H]41 (stereo partly drawn)
Reply | 42.7

Ask | Can you check `Oc1cc(O)c(Oc2cccc(O)c2O)c(O)c1` next?
Reply | 38.7

Ask | Similarly, O=[N+]([O-])c1ccc(S(=O)Cc2ccccc2)c([N+](=O)[O-])c1 (stereo not drawn) ?
Reply | 21.1

Next:
Ask | Reported TGI, compound `O=C(Nc1ccc(F)cc1)c1ccc(NC2=C(Cl)C(=O)N(Cc3ccccc3)C2=O)cc1` : ____
Reply | 63.7

Ask | Same thing, different compound: `O=Nc1c(-c2c(O)[nH]c3ccc([N+](=O)[O-])cc23)[nH]c2ccc(O)cc12`
Reply | 0.414
